- experimental.system: GLP1 (Homo sapiens, UniProt Q9H9B1)
- Sequence (Q9H9B1 982-1266): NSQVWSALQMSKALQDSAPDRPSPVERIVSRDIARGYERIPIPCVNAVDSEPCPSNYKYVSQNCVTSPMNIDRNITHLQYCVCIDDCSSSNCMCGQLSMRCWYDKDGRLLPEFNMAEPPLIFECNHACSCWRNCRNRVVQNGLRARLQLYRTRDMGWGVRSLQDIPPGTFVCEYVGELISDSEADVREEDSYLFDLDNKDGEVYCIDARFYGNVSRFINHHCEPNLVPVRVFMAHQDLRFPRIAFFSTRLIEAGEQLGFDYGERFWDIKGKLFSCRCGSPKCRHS
pIC50: −log10 of the molar value.
readout: pIC50

Query (compound): CC(C)(C)c1ccc(NC(=O)NCCC[C@H](CNCc2ccccc2)C[C@H]2O[C@@H](n3cnc4c(N)ncnc43)C(O)C2O)cc1 (stereo partly shown) [Example 104] ; field requested: pIC50
< 4.30

###

- experimental.system: SET8 (Homo sapiens, UniProt Q9NQR1)
- Sequence (Q9NQR1 232-393): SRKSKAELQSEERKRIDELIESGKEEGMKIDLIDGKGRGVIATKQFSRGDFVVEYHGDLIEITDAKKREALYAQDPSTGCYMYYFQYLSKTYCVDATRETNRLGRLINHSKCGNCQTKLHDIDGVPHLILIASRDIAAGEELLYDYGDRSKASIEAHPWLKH
readout: IC50

Param readout = IC50; param system = SET8 (Homo sapiens, UniProt Q9NQR1); param query = CC(C)(C)c1ccc(NC(=O)NCCC[C@H](CNCc2ccccc2)C[C@H]2O[C@@H](n3cnc4c(N)ncnc43)C(O)C2O)cc1 (stereo partly shown) ; response: value
> 50 µM

###

- experimental.system: CARM1 (Homo sapiens)
- Construct: CARM1 (19-608)
- Sequence (Q86X55 19-608): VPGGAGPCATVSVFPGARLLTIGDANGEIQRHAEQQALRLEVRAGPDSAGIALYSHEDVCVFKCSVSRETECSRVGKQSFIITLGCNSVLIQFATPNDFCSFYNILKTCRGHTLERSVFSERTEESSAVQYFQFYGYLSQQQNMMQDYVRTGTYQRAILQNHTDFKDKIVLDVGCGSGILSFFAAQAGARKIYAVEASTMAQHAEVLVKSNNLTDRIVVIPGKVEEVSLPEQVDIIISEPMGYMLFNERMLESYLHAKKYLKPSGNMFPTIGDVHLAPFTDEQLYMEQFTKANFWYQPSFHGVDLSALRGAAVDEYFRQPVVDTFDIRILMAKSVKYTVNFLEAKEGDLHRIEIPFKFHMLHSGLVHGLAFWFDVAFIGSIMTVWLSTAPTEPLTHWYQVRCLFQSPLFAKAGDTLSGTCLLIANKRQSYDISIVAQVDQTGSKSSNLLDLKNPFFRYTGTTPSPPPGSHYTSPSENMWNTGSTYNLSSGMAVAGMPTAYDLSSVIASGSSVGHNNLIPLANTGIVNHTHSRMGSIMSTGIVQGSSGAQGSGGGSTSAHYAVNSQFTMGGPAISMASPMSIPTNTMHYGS
- method: PMT filter-paper methylation assay, CARM1
- Type: biochemical
- cond: CARM1 (19-608)^a 300 nM final enzyme, H3 (1-40 aa), 7 h; read-out: IC50 CARM1^a
readout: IC50 (nM)
Express your answer in nM, writing the number without its unit.

Entry under review: CC(C)(C)c1ccc(NC(=O)NCCC[C@H](CNCc2ccccc2)C[C@H]2O[C@@H](n3cnc4c(N)ncnc43)C(O)C2O)cc1 (stereo partly shown) [Example 104] . Reported IC50?
300

###

- experimental.system: SET7/9 (Homo sapiens, UniProt Q8WTS6)
- Construct: SET7/9 Full-length
- Sequence (Q8WTS6 whole entry): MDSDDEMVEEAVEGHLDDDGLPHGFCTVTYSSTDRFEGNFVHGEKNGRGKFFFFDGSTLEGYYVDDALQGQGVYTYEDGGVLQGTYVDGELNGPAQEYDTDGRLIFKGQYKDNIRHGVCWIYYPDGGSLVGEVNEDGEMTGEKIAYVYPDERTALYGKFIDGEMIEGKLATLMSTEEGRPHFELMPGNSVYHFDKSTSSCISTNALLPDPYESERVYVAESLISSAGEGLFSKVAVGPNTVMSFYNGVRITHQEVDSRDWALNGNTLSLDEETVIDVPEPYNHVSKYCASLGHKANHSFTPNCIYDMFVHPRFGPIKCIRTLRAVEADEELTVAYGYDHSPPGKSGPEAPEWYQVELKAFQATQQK
- method: PMT filter-paper methylation assay, SET7/9
- cond: SET7/9 full-length 150 nM final, H3 (1-21 aa), 3 h
pIC50: −log10 of the molar value.
readout: pIC50

Please report the recorded pIC50 for CC(C)(C)c1ccc(NC(=O)NCCC[C@H](CNCc2ccccc2)C[C@H]2O[C@@H](n3cnc4c(N)ncnc43)C(O)C2O)cc1 (stereo partly shown) [Example 104] .
< 4.30

###

- experimental.system: PRMT1 (Homo sapiens)
- Sequence (Q99873 10-352 isoform Q99873-3): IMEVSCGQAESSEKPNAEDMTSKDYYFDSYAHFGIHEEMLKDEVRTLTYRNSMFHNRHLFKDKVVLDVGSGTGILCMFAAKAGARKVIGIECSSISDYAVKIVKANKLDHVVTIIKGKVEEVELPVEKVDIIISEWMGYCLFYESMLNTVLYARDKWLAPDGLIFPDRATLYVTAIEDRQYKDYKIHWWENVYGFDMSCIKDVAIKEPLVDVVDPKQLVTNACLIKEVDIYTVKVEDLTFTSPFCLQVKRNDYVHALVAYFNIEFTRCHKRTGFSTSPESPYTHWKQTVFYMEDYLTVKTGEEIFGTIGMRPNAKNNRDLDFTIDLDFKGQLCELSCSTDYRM
readout: IC50

Identify the measured IC50 of CC(C)(C)c1ccc(NC(=O)NCCC[C@H](CNCc2ccccc2)C[C@H]2O[C@@H](n3cnc4c(N)ncnc43)C(O)C2O)cc1 (stereo partly shown) [Example 104] for PRMT1 (Homo sapiens).
> 50 µM
